test system: DENV-1; test: Plaque reduction neutralization assay, DENV-1; assay type: cell-based, Dengue virus serotype 1; settings: Vero cells; virus pre-incubated with peptide 1 h at 37° C.; read-out: DENV-1 PRNT50
IC50 strictly under 0.1 µM means label 1; at 0.1 µM or over means label 0.

polymer_sequence="SGSWLRDVWDWVCTILTDFKNWLTSKL [Peptide O3O]" class_assignment="label 0"
polymer_sequence="SGSWLRDVWDWICTVLTDFKTWLQSKL [Peptide N2O]" class_assignment="label 0"
polymer_sequence="DGNWLYDIWNWVCTVLADFKLWLGAKI [Peptide N9N]" class_assignment="label 1"
polymer_sequence="GSTWLRDIWDWVCTVLSDFRVWLKSKL [Peptide O110]" class_assignment="label 0"
polymer_sequence="SGSWLRDIWDWICEVLSDFKTWLKAKL [Peptide N1O]" class_assignment="label 0"
polymer_sequence="SGSWLRDIWDWICEVLSDFKTWLKAKL [Peptide N1N]" class_assignment="label 0"
polymer_sequence="AESWLWEVWDWVLHVLSDFKTCLKAKF [Peptide O100]" class_assignment="label 1"
polymer_sequence="GDDWLHDIWDWVCIVLSDFKTWLSAKI [Peptide O8O]" class_assignment="label 1"
polymer_sequence="SDDWLRTIWDWVCSVLADFKAWLSAKI [Peptide N7O]" class_assignment="label 0"

Now, please, on to the next sequence.
Enquiry: Problem: For the sequence SGSWLRDVWDWICTVLTDFKTWLQSKL [Peptide N2N] , is IC50 under 0.1 µM?
Return: label 0

Attribution: patent US20250282830A1
